EXPERIMENTAL_TARGET: κ opioid receptor (Homo sapiens (Human), UniProt P41145)
PROCEDURE_SUMMARY: κ-opioid receptor [35S]GTPγS functional assay, HEK-293 or CHO cells
Assay type: biochemical
Description: κ-Opioid Receptor Functional Assay Procedures: Functional [^35S]GTPγS binding assays were conducted as follows. κ opioid receptor membrane solution was prepared by sequentially adding final concentrations of 0.026 μg/μl κ membrane protein (in-house), 10 μg/mL saponin, 3 μM GDP and 0.20 nM [^35S]GTPγS to binding buffer (100 mM NaCl, 10 mM MgCl2, 20 mM HEPES, pH 7.4) on ice. […]
Give measured pEC50 for each item. Keep answers brief.
Answers are plain numbers, as −log10 of the molar value.

Previously resolved entries follow.
* COc1ccc2c(c1)[C@]13CCN(CC4CC4)[C@H](C2)[C@@H]1CC[C@@]1(C3)NC(=O)NC1=O | 5.91
* O=C1NC(=O)[C@@]2(CC[C@@]3(O)[C@H]4Cc5ccc(O)cc5[C@@]3(CCN4CC3CC3)C2)N1 | 7.26
* O=C1NC[C@@]2(CC[C@@]3(O)[C@H]4Cc5ccc(O)cc5[C@@]3(CCN4CC3CC3)C2)N1 | 7.17
* CCN1C(=O)NC(=O)[C@@]12CC[C@@]1(O)[C@H]3Cc4ccc(O)cc4[C@@]1(CCN3CC1CC1)C2 | 8.18
* COc1ccc2c(c1)[C@]13CCN(CC4CC4)[C@H](C2)[C@]1(O)CC[C@@]1(CNC(=O)N1)C3 | 6.05
* CN1C(=O)NC(=O)[C@@]12CC[C@@]1(O)[C@H]3Cc4ccc(O)cc4[C@@]1(CCN3CC1CC1)C2 | 8.45
* O=C1NC(=O)[C@@]2(CC[C@H]3[C@H]4Cc5ccc(O)cc5[C@@]3(CCN4CC3CC3)C2)N1 | 8.43

With those in mind, consider the next compound.
Lab book: pEC50 of `COc1ccc2c(c1)[C@]13CCN(CC4CC4)[C@H](C2)[C@]1(O)CC[C@@]1(C3)NC(=O)NC1=O` noted as 5.60

The reported numbers originate from patent US8987287B2.
